Value source: the supplement of paper PMC11451515

Recorded cell viability for the following compounds
Tested on: NOMO1
assayNotes: cell viability relative to DMSO control; higher = less cytotoxic
conditionSummary: RPMI 5 mM glucose + 10% dialyzed FBS; 48 h; 15.4 µM
measuredParameter: cell viability (%)

compound: CC(C)N(CCCNC(=O)Nc1ccc(C(C)(C)C)cc1)C[C@H]1O[C@@H](n2cc(Br)c3c(N)ncnc32)[C@H](O)[C@@H]1O
measuredParameter: cell viability
result: 68.8
--
compound: COc1ccc(CC2SC(=O)NC2=O)cc1C(=O)NCc1ccc(C(F)(F)F)cc1 (stereo unspecified)
measuredParameter: cell viability
result: 79.3
--
compound: O=C(Nc1ccncc1)C(=O)c1cn(Cc2ccc(Cl)cc2)c2ccccc12
measuredParameter: cell viability
result: 39.7
--
compound: CCC[S+](=O)([O-])Nc1ccc(F)c(C(=O)c2c[nH]c3ncc(-c4ccc(Cl)cc4)cc23)c1F
measuredParameter: cell viability
result: 112
--
compound: CON(C)C(=O)N1\N=C(/S[C@]1(CCCN)C2=CC=CC=C2)C3=CC(=CC=C3F)F
measuredParameter: cell viability
result: 22.6
--
compound: Oc1ccc(C2CNCCc3c2cc(O)c(O)c3Cl)cc1 (stereo unspecified)
measuredParameter: cell viability
result: 101
--
compound: CNC(=O)c1ccccc1Sc1ccc2c(/C=C/c3ccccn3)n[nH]c2c1
measuredParameter: cell viability
result: 68.8
--
compound: CCCC[N+]1(C)[C@@H]2CC(OC(=O)[C@H](CO)c3ccccc3)C[C@H]1[C@@H]1O[C@@H]12 (stereo partly specified)
measuredParameter: cell viability
result: 105
--
compound: CN1CCN(CC1)C/2=N/C3=CC=CC=C3NC4=C2C=C(C)S4
measuredParameter: cell viability
result: 69.7
--
compound: CC/C(=C(\c1ccccc1)c1ccc(OCCN(C)C)cc1)c1ccccc1
measuredParameter: cell viability
result: 81
--
compound: NC(=O)[C@@H](CCC(F)(F)F)N(Cc1ccc(-c2ncon2)cc1F)[S+](=O)([O-])c1ccc(Cl)cc1
measuredParameter: cell viability
result: 81.6
--
compound: COC1=CC2=C(C=C1CC3=C(F)C(=CC=C3)Cl)C(=O)\C(=C/N2[C@H](CO)C(C)C)C(O)=O
measuredParameter: cell viability
result: 115
--
compound: Cc1ccc([S+](=O)([O-])NC(=O)NN2CC3CCCC3C2)cc1 (stereo unspecified)
measuredParameter: cell viability
result: 57.3
--
compound: COc1cc([S+](C)(=O)[O-])ccc1Nc1nc2ccc(-c3ccc(NC(=O)[C@H](C)c4ccc(F)cc4)cc3)cn2n1
measuredParameter: cell viability
result: 96.1
--
compound: CN1C(=O)C(=C/2N(C(=O)N(C3CC3)C(=O)C2=C1/NC4=CC=C(I)C=C4F)C5=CC=CC(=C5)NC(C)=O)\C
measuredParameter: cell viability
result: 9.59
--
compound: CNC(=O)c1cc(Oc2ccc(NC(=O)Nc3ccc(Cl)c(C(F)(F)F)c3)c(F)c2)ccn1
measuredParameter: cell viability
result: 82.2

* * *

System: P12-Ichikawa
assayNotes: cell viability relative to DMSO control; higher = less cytotoxic
conditionSummary: RPMI 5 mM glucose + 10% FBS; 48 h; 0.0211 µM
Catalogue of compounds with associated cell viability
measuredParameter: cell viability

sampleSmiles: CC/C(=C(\c1ccccc1)c1ccc(OCCN(C)C)cc1)c1ccccc1
result: 118%
--
sampleSmiles: CCOC\1=C(/C(=O)NC2=CC=C(OC3=C(Cl)C(=NC=C3)N)C(=C2)F)C(=O)N(\C=C1)C4=CC=C(F)C=C4
result: 98.5%
--
sampleSmiles: CN1CCC(=C2c3ccccc3CCc3sccc32)CC1
result: 117%
--
sampleSmiles: O=C1CCc2cc(OCCCCc3nnnn3C3CCCCC3)ccc2N1
result: 81%
--
sampleSmiles: CN(C)c1ccccc1CN1CCCN(Cc2ccccc2N(C)C)C1c1ccncc1
result: 11%
--
sampleSmiles: CCNC(=O)c1noc(-c2cc(C(C)C)c(O)cc2O)c1-c1ccc(CN2CCOCC2)cc1
result: 117%
--
sampleSmiles: COc1cc([C@@H]2c3cc4c(cc3[C@H](O)[C@H]3COC(=O)[C@H]23)OCO4)cc(OC)c1OC
result: 9.29%
--
sampleSmiles: C[C@@H](Oc1ccc2[nH]nc(/C=C/c3cnn(CCO)c3)c2c1)c1c(Cl)cncc1Cl
result: 94.3%

* * *

Test system: NOMO1
assayNotes: cell viability relative to DMSO control; higher = less cytotoxic
conditionSummary: RPMI 5 mM glucose + 10% dialyzed FBS; 48 h; 0.569 µM
A collection of compounds and their measured cell viability

compound: CN1C(=O)C(=C/2N(C(=O)N(C3CC3)C(=O)C2=C1/NC4=CC=C(I)C=C4F)C5=CC=CC(=C5)NC(C)=O)\C
unitsLabel: %
cell viability: 55.1
//
compound: CN(C)Cc1cccc(N/C(=C2\C(=O)Nc3cc(C(=O)N(C)C)ccc32)c2ccccc2)c1
unitsLabel: %
cell viability: 112
//
compound: CC(C)(OCc1nn(Cc2ccccc2)c2ccccc12)C(=O)O
unitsLabel: %
cell viability: 102
//
compound: COC(=O)[C@@H]1CC2=CC(=O)CC[C@]2(C)[C@@]23O[C@@H]2C[C@@]2(C)[C@@H](CC[C@@]24CCC(=O)O4)[C@H]13
unitsLabel: %
cell viability: 123
//
compound: Clc1ccc(C(Cn2ccnc2)OCc2ccc(Sc3ccccc3)cc2)c(Cl)c1 (stereo not drawn)
unitsLabel: %
cell viability: 134
//
compound: CCNC(=O)c1noc(-c2cc(C(C)C)c(O)cc2O)c1-c1ccc(CN2CCOCC2)cc1
unitsLabel: %
cell viability: 17.3
//
compound: Cc1ccnc(N[S+](=O)([O-])c2ccc(NC(=O)Nc3ccc([S+](=O)([O-])Nc4nccc(C)n4)cc3)cc2)n1
unitsLabel: %
cell viability: 56
//
compound: Cc1n[nH]c2ccc(-c3cncc(OC[C@@H](N)Cc4c[nH]c5ccccc45)c3)cc12
unitsLabel: %
cell viability: 63.6
//
compound: COc1cc([C@@H]2c3cc4c(cc3[C@@H](O[C@@H]3O[C@@H]5CO[C@@H](C)O[C@H]5[C@H](O)[C@H]3O)[C@H]3COC(=O)[C@H]23)OCO4)cc(OC)c1O
unitsLabel: %
cell viability: 87.9
//
compound: COc1ccc(CC2SC(=O)NC2=O)cc1C(=O)NCc1ccc(C(F)(F)F)cc1 (stereo not drawn)
unitsLabel: %
cell viability: 96.7
//
compound: CC/C(=C(\c1ccccc1)c1ccc(OCCN(C)C)cc1)c1ccccc1
unitsLabel: %
cell viability: 114
//
compound: NNC(=O)c1ccncc1
unitsLabel: %
cell viability: 119
//
compound: COc1cc2nc(N3CCN(C(=O)c4ccco4)CC3)nc(N)c2cc1OC
unitsLabel: %
cell viability: 95.2

* * *

Catalogue of cell viability values
Tested on: P12-Ichikawa
assayNotes: cell viability relative to DMSO control; higher = less cytotoxic
conditionSummary: RPMI 5 mM glucose + 10% FBS; 48 h; 46.1 µM
measuredParameter: cell viability

compound: CCc1nc(C(N)=O)c(Nc2ccc(N3CCC(N4CCN(C)CC4)CC3)c(OC)c2)nc1NC1CCOCC1
measuredParameter: cell viability
result: 52.3%
//
compound: CN(C)Cc1cccc(N/C(=C2\C(=O)Nc3cc(C(=O)N(C)C)ccc32)c2ccccc2)c1
measuredParameter: cell viability
result: 65%
//
compound: Cc1cccc(Nc2nc(N[C@@H]3CCCC[C@@H]3N)ncc2C(N)=O)c1
measuredParameter: cell viability
result: 14.7%
//
compound: COc1cc([C@@H]2c3cc4c(cc3[C@@H](O)C3COC(=O)C32)OCO4)cc(OC)c1O (some centres undefined)
measuredParameter: cell viability
result: 5.33%

* * *

Tested on: NOMO1
assayNotes: cell viability relative to DMSO control; higher = less cytotoxic
conditionSummary: RPMI 5 mM glucose + 10% FBS; 48 h; 0.0211 µM

compound: CN(C)c1ccccc1CN1CCCN(Cc2ccccc2N(C)C)C1c1ccncc1
cell viability [%]: 18.6
//
compound: CC(C)(OCc1nn(Cc2ccccc2)c2ccccc12)C(=O)O
cell viability [%]: 96
//
compound: COc1cc([C@@H]2c3cc4c(cc3[C@@H](O)C3COC(=O)C32)OCO4)cc(OC)c1O (some centres not stated)
cell viability [%]: 17.6
//
compound: O=C(Nc1cccc2c(=O)cc(-c3nnn[nH]3)oc12)c1ccc(OCCCCc2ccccc2)cc1
cell viability [%]: 84.6
//
compound: CC[C@@H](C)[C@H](NC(=O)[C@H](CC1CCCCC1)NC(=O)c1ccno1)C(=O)N1CCC2(CCc3ccccc32)CC1
cell viability [%]: 79.9
//
compound: OCCN1CCN(CCCN2c3ccccc3Sc3ccc(C(F)(F)F)cc32)CC1
cell viability [%]: 121
//
compound: CCCCCCCN(CC)CCCC(O)c1ccc(NS(C)(=O)=O)cc1.CCCCCCCN(CC)CCCC(O)c1ccc(NS(C)(=O)=O)cc1.O=C(O)/C=C/C(=O)O (configuration not stated)
cell viability [%]: 99.8
//
compound: CN1C(=O)\C(=C/C2=C1N=C(NC3CCOCC3)N=C2)OC4=C(F)C=C(F)C=C4
cell viability [%]: 90.6
//
compound: CCCC[N+]1(C)[C@@H]2CC(OC(=O)[C@H](CO)c3ccccc3)C[C@H]1[C@@H]1O[C@@H]12 (some centres not stated)
cell viability [%]: 120
//
compound: CC(=O)OCC(CCn1cnc2cnc(N)nc21)COC(C)=O
cell viability [%]: 93.1
//
compound: CC(=O)O[C@@]12CO[C@@H]1C[C@H](O)[C@]3(C)[C@@H]2[C@H](OC(=O)C4=CC=CC=C4)[C@]5(O)C[C@H](O)/C(=C(/[C@@H](O)C3=O)C5(C)C)C
cell viability [%]: 116
//
compound: NCC/1=C/NC(=S)N1[C@H]2CCC3=C(F)C=C(F)C=C3C2
cell viability [%]: 102
